- target.or.test.system: Endothelial lipase (EL) (Homo sapiens, UniProt Q9Y5X9)
- Construct: HT-1080 cells that were transformed using RAGE technology (Athersys) to overexpress endogenous EL; endogenous in cells; conditioned medium used
- assay.protocol: Endothelial lipase (EL) enzymatic assay, fluorescent substrate A10070 in DMPG vesicles
- Format: biochemical
- details: EL from conditioned media of HT-1080 cells; compound preincubated 30 min at 37° C; read-out: EL IC50
recorded.endpoint: IC50

Quick check: IC50 of NS(=O)(=O)NCc1nnc(C(c2nc3ccc(-c4ccc(Cl)cc4)cc3s2)S(=O)(=O)Cc2ccccc2)o1 (stereo not shown) [Example 126] ?
< 0.01 µM

Then CS(=O)(=O)C(c1nnc(CC2SC(=O)NC2=O)o1)c1nc2ccc(-c3cnc(OCc4ccccc4)nc3)cc2s1 (stereo not shown) [Example 104] ?
< 0.01 µM

Then CCNC(=O)NCc1nnc(C(c2nc3ccc(-c4ccccc4)cc3s2)S(C)(=O)=O)o1 (stereo not shown) [Example 87] ?
0.046 µM

Each of the following entries comes with a recorded value; kindly state IC50 for each.
1. CC1(NC(=O)c2cccc(-c3ccc4nc(C(c5nnc(CC6(C)NC(=O)NC6=O)o5)S(C)(=O)=O)sc4c3)c2)CC1 (stereo not shown) [Example 224]
2. O=C(Cc1nnc(C(c2nc3ccc(-c4ccc(C(=O)N5CCOCC5)cc4)cc3s2)S(=O)(=O)Cc2ccccc2)o1)NCC1(O)CCC1 (stereo not shown) [Example 178]
3. COC(=O)CCS(=O)(=O)C(c1nnc(CNS(N)(=O)=O)o1)c1nc2ccc(-c3cnn(C)c3)cc2s1 (stereo not shown) [Example 112]
4. NS(=O)(=O)Cc1nnc(C(c2nc3c(F)cc(-c4ccccc4)cc3s2)S(=O)(=O)Cc2ccc(C(F)(F)F)cc2)o1 (stereo not shown) [Example 90]

1. 0.011 µM
2. < 0.01 µM
3. < 0.01 µM
4. < 0.01 µM

----------
- target.or.test.system: hepatic lipase (HL) (Homo sapiens)
- Construct: made in house; host or cells: COS cells (conditioned medium, partially purified)
- Sequence (P11150 23-499, species assumed): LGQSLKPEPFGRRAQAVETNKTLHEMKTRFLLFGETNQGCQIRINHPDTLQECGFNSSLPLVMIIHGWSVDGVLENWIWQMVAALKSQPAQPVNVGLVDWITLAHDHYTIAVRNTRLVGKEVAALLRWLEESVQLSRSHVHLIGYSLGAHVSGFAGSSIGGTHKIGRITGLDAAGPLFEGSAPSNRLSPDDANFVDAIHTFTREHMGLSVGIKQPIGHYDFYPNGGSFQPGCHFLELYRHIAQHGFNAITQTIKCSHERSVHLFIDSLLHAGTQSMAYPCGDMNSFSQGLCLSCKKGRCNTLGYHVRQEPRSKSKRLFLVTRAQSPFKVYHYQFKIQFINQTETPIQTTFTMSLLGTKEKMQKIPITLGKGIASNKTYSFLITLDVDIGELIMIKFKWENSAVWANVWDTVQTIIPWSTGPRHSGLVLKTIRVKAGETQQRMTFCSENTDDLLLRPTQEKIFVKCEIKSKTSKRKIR
- assay.protocol: Hepatic lipase (HL) enzymatic assay, fluorescent substrate A10070 in DMPG vesicles
- Type: biochemical
- details: HL partially purified from conditioned media of COS cells; compound preincubated 30 min at 37° C; read-out: HL IC50
pIC50: −log10 of the molar value.
recorded.endpoint: pIC50

Here are 2 compounds together with their reported answers.
Quick check: pIC50 of CC(C)(C)OC(=O)NS(=O)(=O)NCc1nnc(C(c2nc3ccc(-c4cc(F)cc(Cl)c4)cc3s2)S(=O)(=O)Cc2ccccc2)o1 (stereo not drawn) ?
> 8.00

Then CS(=O)(=O)C(c1nnc(CC2SC(=O)NC2=O)o1)c1nc2ccc(-c3ccc(=O)n(Cc4ccccc4)c3)cc2s1 (stereo not drawn) ?
6.80

New cases:
Quick check: pIC50 of O=C(NCCS(=O)(=O)C(c1nnc(CC2SC(=O)NC2=O)o1)c1nc2cc(F)c(-c3ccccc3)cc2s1)OCc1ccccc1 (stereo not drawn) ?
> 8.00

----------
- target.or.test.system: Endothelial lipase (EL) (Homo sapiens)
- Construct: HT-1080 cells that were transformed using RAGE technology (Athersys) to overexpress endogenous EL; endogenous in cells; conditioned medium used
- Sequence (Q9Y5X9 21-500): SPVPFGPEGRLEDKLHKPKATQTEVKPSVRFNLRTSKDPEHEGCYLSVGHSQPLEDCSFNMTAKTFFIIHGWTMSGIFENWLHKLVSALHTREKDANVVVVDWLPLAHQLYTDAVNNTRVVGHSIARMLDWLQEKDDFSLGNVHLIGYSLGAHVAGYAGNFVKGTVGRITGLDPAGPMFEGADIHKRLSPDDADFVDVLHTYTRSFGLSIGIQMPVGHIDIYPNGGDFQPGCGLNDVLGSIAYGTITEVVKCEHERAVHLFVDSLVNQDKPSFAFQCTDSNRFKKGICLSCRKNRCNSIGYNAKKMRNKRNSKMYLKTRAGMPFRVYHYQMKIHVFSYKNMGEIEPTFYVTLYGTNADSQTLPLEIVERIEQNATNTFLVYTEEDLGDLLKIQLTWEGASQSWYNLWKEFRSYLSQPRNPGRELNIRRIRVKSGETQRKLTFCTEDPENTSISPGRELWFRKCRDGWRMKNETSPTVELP
- assay.protocol: Endothelial lipase (EL) enzymatic assay, fluorescent substrate A10070 in DMPG vesicles
- Type: biochemical
- details: EL from conditioned media of HT-1080 cells; compound preincubated 30 min at 37° C; read-out: EL IC50
recorded.endpoint: pIC50
Numbers only, as −log10 of the molar value.

Here are 5 compounds together with their reported answers.
Give the reported pIC50 for CS(=O)(=O)C(c1nnc(CC2NC(=O)NC2=O)o1)c1nc2ccc(-c3ccc(C(=O)N4CCOCC4)cc3)cc2s1 (stereo not drawn) (system: Endothelial lipase (EL) (Homo sapiens)).
7.34

Then CC(C)C(O)C(=O)NCc1nnc(C(c2nc3ccc(-c4ccccc4)cc3s2)S(C)(=O)=O)o1 (stereo not drawn) ?
7.27

Then NS(=O)(=O)NCc1nnc(C(c2nc3ccc(Br)cc3s2)S(=O)(=O)Cc2ccccc2)o1 (stereo not drawn) ?
7.32

Then CC1(Cc2nnc(C(c3nc4ccc(-c5cccc(C(=O)N6CC(F)(F)C6)c5)cc4s3)S(C)(=O)=O)o2)NC(=O)NC1=O (stereo not drawn) ?
6.75

Then CS(=O)(=O)NCc1nnc(C(c2nc3ccc(-c4ccccc4)cc3s2)S(C)(=O)=O)o1 (stereo not drawn) ?
7.33

Each of the following entries comes with a recorded value; kindly state pIC50 for each.
1. CC1(Cc2nnc(C(c3nc4ccc(-c5ccnc(F)c5)cc4s3)S(=O)(=O)Cc3ccccc3)o2)NC(=O)NC1=O (single isomer, unassigned; isomer a) [Example 9]
2. CC1(Cc2nnc(C(c3nc4ccc(-c5ccc(C(=O)N6CCOCC6)cc5)cc4s3)S(=O)(=O)Cc3ccccc3)o2)NC(=O)NC1=O (stereo not drawn) [Example 8]
3. CS(=O)(=O)C(c1nnc(CNS(N)(=O)=O)o1)c1nc2cc(-c3ccc(F)nc3)ccc2s1 (stereo not drawn)
4. NCCS(=O)(=O)C(c1nnc(CNS(N)(=O)=O)o1)c1nc2ccc(-c3ccc(C(=O)N4CCOCC4)cc3)cc2s1 (stereo not drawn)

1: 6.91; 2: 7.21; 3: 9.00; 4: 7.85

Each of the following entries comes with a recorded value; kindly state pIC50 for each.
1. CC(C)CN(C)C(=O)c1cccc(-c2ccc3nc(C(c4nnc(CC5(C)NC(=O)NC5=O)o4)S(C)(=O)=O)sc3c2)c1 (stereo not drawn)
2. CCCOCCCNC(=O)Cc1nnc(C(c2nc3ccc(-c4ccc(C(=O)N5CCOCC5)cc4)cc3s2)S(C)(=O)=O)o1 (stereo not drawn)
3. CC(C)(C)[C@H](O)C(=O)NCc1nnc(C(c2nc3ccc(-c4ccccc4)cc3s2)S(C)(=O)=O)o1 (stereo partly drawn)

1. 7.46
2. 7.92
3. 6.86

----------
- target.or.test.system: Endothelial lipase (EL) (Homo sapiens, UniProt Q9Y5X9)
- Construct: HT-1080 cells that were transformed using RAGE technology (Athersys) to overexpress endogenous EL; endogenous in cells; conditioned medium used
- assay.protocol: Endothelial lipase (EL) enzymatic assay, fluorescent substrate A10070 in DMPG vesicles
- Assay type: biochemical
- details: EL from conditioned media of HT-1080 cells; compound preincubated 30 min at 37° C; read-out: EL IC50
Please go through the items and note down their IC50.
One number for each entry, in nM.

Here are 2 compounds together with their reported answers.
Quick check: IC50 of CS(=O)(=O)C(c1nnc(CNS(N)(=O)=O)o1)c1nc2ccc(-c3cccc(C(=O)NCCO)c3)cc2s1 (stereo not shown) [Example 257] ?
10

Then CN(C(=O)c1cccc(-c2ccc3nc(C(c4nnc(CC5(C)NC(=O)NC5=O)o4)S(C)(=O)=O)sc3c2)c1)C1CC1 (stereo not shown) [Example 221] ?
1

New cases:
Quick check: IC50 of CN(Cc1nnc(C(c2nc3ccc(-c4ccccc4)cc3s2)S(=O)(=O)Cc2ccccc2)o1)S(N)(=O)=O (stereo not shown) [Example 81] ?
32

----------
- target.or.test.system: hepatic lipase (HL) (Homo sapiens)
- Construct: made in house; host or cells: COS cells (conditioned medium, partially purified)
- assay.protocol: Hepatic lipase (HL) enzymatic assay, fluorescent substrate A10070 in DMPG vesicles
- Type: biochemical
- details: HL partially purified from conditioned media of COS cells; compound preincubated 30 min at 37° C; read-out: HL IC50
recorded.endpoint: IC50 (nM)
Numbers only, in nM.

Give the reported IC50 for CS(=O)(=O)C(c1nnc(CNS(N)(=O)=O)o1)c1nc2ccc(-c3cccc(C(=O)NC4CCC4)c3)cc2s1 (stereo not drawn) (system: hepatic lipase (HL) (Homo sapiens)).
5

Then NS(=O)(=O)NCc1nnc(C(c2nc3ccc(-c4cc(F)nc(F)c4)cc3s2)S(=O)(=O)Cc2ccccc2)o1 (stereo not drawn) ?
77

Then CC1(NC(=O)c2cccc(-c3ccc4nc(C(c5nnc(CC6(C)NC(=O)NC6=O)o5)S(C)(=O)=O)sc4c3)c2)CC1 (stereo not drawn) ?
76

Then CN(C)C(=O)O[C@H](C(=O)NCc1nnc(C(c2nc3ccc(-c4ccccc4)cc3s2)S(C)(=O)=O)o1)C(C)(C)C (stereo partly drawn) ?
71

Then CS(=O)(=O)C(c1nnc(CNS(N)(=O)=O)o1)c1nc2ccc(-c3cccc(C(=O)Nc4cccnc4)c3)cc2s1 (stereo not drawn) ?
26

Then CN(C(=O)c1cccc(-c2ccc3nc(C(c4nnc(CC5(C)NC(=O)NC5=O)o4)S(C)(=O)=O)sc3c2)c1)C1CC1 (stereo not drawn) ?
25

Then NCCS(=O)(=O)C(c1nnc(CNS(N)(=O)=O)o1)c1nc2ccc(-c3ccc(C(=O)N4CCOCC4)cc3)cc2s1 (stereo not drawn) ?
178

Then CS(=O)(=O)C(c1nnc(CNS(N)(=O)=O)o1)c1nc2ccc(-c3cccc(C(=O)N4CCC4)c3)cc2s1 (stereo not drawn) ?
37

Then CC1(O)CN(C(=O)c2cccc(-c3ccc4nc(C(c5nnc(CC6(C)NC(=O)NC6=O)o5)S(C)(=O)=O)sc4c3)c2)C1 (stereo not drawn) ?
783

Then CS(=O)(=O)C(c1nnc(CNS(N)(=O)=O)o1)c1nc2ccc(-c3ccc(C(=O)N4CCOCC4)cc3)cc2s1 (stereo not drawn) ?
22

Each of the following entries comes with a recorded value; kindly state IC50 for each.
1. CS(=O)(=O)C(c1nnc(CNS(N)(=O)=O)o1)c1nc2ccc(-c3cccc(C(=O)NC4CCC(O)CC4)c3)cc2s1 (stereo not drawn)
2. CNC(=O)c1cccc(-c2ccc3nc(C(c4nnc(CC5(C)NC(=O)NC5=O)o4)S(C)(=O)=O)sc3c2)c1 (stereo not drawn)
3. NS(=O)(=O)NCc1nnc(C(c2nc3ccc(-c4cccc(C(=O)NCCO)c4)cc3s2)S(=O)(=O)CCC(F)(F)F)o1 (stereo not drawn)
4. NS(=O)(=O)NCc1nnc(C(c2nc3ccc(-c4ccc(C(=O)N5CCOCC5)cc4)cc3s2)S(=O)(=O)CCNC(=O)OCc2ccccc2)o1 (stereo not drawn)
5. NS(=O)(=O)NCc1nnc(C(c2nc3ccc(-c4ccc(F)nc4)cc3s2)S(=O)(=O)Cc2ccc(C(F)(F)F)cc2)o1 (stereo not drawn)
6. CS(=O)(=O)C(c1nnc(CC2SC(=O)NC2=O)o1)c1nc2ccc(C3=CCOCC3)cc2s1 (stereo not drawn)
7. COCCS(=O)(=O)C(c1nnc(CNS(N)(=O)=O)o1)c1nc2ccc(-c3cnn(C)c3)cc2s1 (stereo not drawn)
8. COCc1ccc(-c2ccc3nc(C(c4nnc(CNS(N)(=O)=O)o4)S(=O)(=O)Cc4ccc(F)cc4)sc3c2)cc1 (stereo not drawn)

[35, 262, 209, 307, 18, 142, 143, 1]

Each of the following entries comes with a recorded value; kindly state IC50 for each.
1. CS(=O)(=O)C(c1nnc(CNS(N)(=O)=O)o1)c1nc2cc(-c3ccc(C(=O)N4CCOCC4)cc3)ccc2s1 (stereo not drawn)
2. CC(C)Cn1cc(-c2cc(F)c3nc(C(c4nnc(CC5SC(=O)NC5=O)o4)S(=O)(=O)Cc4ccccc4)sc3c2)cn1 (stereo not drawn)
3. COCCS(=O)(=O)C(c1nnc(CC(=O)NC2CC2)o1)c1nc2ccc(-c3ccc(F)nc3)cc2s1 (stereo not drawn)
4. CC1(CS(=O)(=O)C(c2nnc(CNS(N)(=O)=O)o2)c2nc3ccc(-c4ccc(C(=O)N5CCOCC5)cc4)cc3s2)COC1 (stereo not drawn)
5. CN1CCN(C(=O)c2cccc(-c3ccc4nc(C(c5nnc(CNS(N)(=O)=O)o5)S(C)(=O)=O)sc4c3)c2)CC1 (stereo not drawn)

1. 119
2. 24
3. 306
4. 91
5. 105

meta.source: patent US20140011799A1
